assay: Circular dichroism, α-helical content of peptide alone; type: physicochemical; conditions: CD, 10 mM H3PO4, 20 °C
Square brackets hold non-standard residues; d marks the D form. Ends that are not written are not given here. Orn = NCCC[C@H](N)C(=O)O; Dab = NCC[C@H](N)C(=O)O; Dap = NC[C@H](N)C(=O)O
I would appreciate it if you labelled entries Yes when helicity (first value) is 30% or higher, otherwise No.

Known results for substances:
Ask: Determine whether measured helicity (first value) meets or exceeds 30% for LKKLLKLLKKLL[Dap]LAG [2i]
Result: Yes

Ask: // next record Ac-LKKLLKLWKKLLKLAG-NH2 [2r]
Result: No

Ask: // next record LKKLLKLLKKLL[Orn]LAG [2g]
Result: Yes

Ask: // next record Ac-LKKLLKLLKKLLKWAG-NH2 [2u]
Result: No

Ask: // next record LKKLLKLL[Dap]KLLKLAG [2f]
Result: No

More entries:
Ask: Determine whether measured helicity (first value) meets or exceeds 30% for LKKLL[Dab]WLKKLLKLAG [3a]
Result: No

Ask: // next record LKKLLKLL[Orn]KLLKLAG [2d]
Result: No

Ask: // next record LKKLL[Dap]LLKKLLKLAG [2c]
Result: No
